molecular target: Alpha-2C adrenergic receptor (Homo sapiens); experiment: modulators of alpha2C/GIRK thallium flux, primary screen, cell-based, HEK293 alpha2C/GIRK1/2 (AID 624); details: thallium flux BTC fluorescence, at 10 µM, actives lie on both sides;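 note: slope of fluorescence ratio to pre-addition baseline per second over 15 to 24 s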
Mark No for slope values under 0.004, and Yes for everything at or above.

Does the reported slope for COCCn1c(=N)c(C(=O)NCCc2ccccc2)cc2c(=O)n3cccc(C)c3nc21 fall at or above the 0.004 mark?
Yes

Does the reported slope for Cc1nnc(SCC(=O)NCc2ccccc2)s1 fall at or above the 0.004 mark?
No

Does the reported slope for CCN1C(=O)c2ccccc2S(=O)c2ccc(C(=O)NC3CC3)cc21 (stereo not given) fall at or above the 0.004 mark?
Yes

Does the reported slope for O=C(NCCCn1ccnc1)c1cnn2c1NC(c1ccccc1)CC2C(F)(F)F (stereo not given) fall at or above the 0.004 mark?
No

----------
assay: inhibitors of TNFa-induced NFkB p65 translocation, primary screen, imaging, HUVEC, MLSMR starter and 10KST1 sets (AID 438); settings: HUVEC TNFa-induced p65 nuclear translocation; measured here: nuclei count (cytotoxicity indicator), at 2.08 µM;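 note: compound added about 3h40 before a 20 min TNFalpha stimulation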
MEASURE NAME: cell count
The answer should be written as a number, with no unit following it.

COMPOUND	cell count
CCN(C(=O)c1c(OC)cccc1OC)c1nnc(-c2cccnc2)s1	892

Form field: reported cell count of O=C(CSc1nccn1-c1cccc(Cl)c1)NC1CCCC1
256

Form field: reported cell count of Cc1cc(=O)n2nc(N3CCCC(C(=O)N4CCc5ccccc54)C3)sc2n1 (stereo not drawn)
487

Form field: reported cell count of CCC(C)(C)n1nnnc1C(c1ccncc1)N1CCN(c2cccc(OC)c2)CC1 (stereo not drawn)
410

Form field: reported cell count of CCCCC(=O)NCCNc1nc2c(c(=O)n(C)c(=O)n2C)n1Cc1ccccc1
555

Form field: reported cell count of O=C(CCN1C(=O)C2C3C=CC(C3)C2C1=O)NC1CCCc2ccccc21 (stereo not drawn)
411

Form field: reported cell count of CCCCOC(=O)c1[nH]c(C)c(C(=O)OC)c1C
604

Form field: reported cell count of Cc1ccc2[nH]c3c(c2c1)CCc1cn[nH]c1-3
410

Form field: reported cell count of Cc1ccc(-c2nc(CS(=O)CC(=O)NCCN(CC(C)C)CC(C)C)c(C)o2)cc1 (stereo not drawn)
716

Form field: reported cell count of O=C(CN1C(=O)COc2ccccc21)N(Cc1cccnc1)Cc1ccccc1F
661

Form field: reported cell count of O=C(O)CCc1ccc(-c2cccs2)o1
314

Form field: reported cell count of O=C(CCS(=O)(=O)c1cccc2nsnc12)NCc1ccccc1
718

Form field: reported cell count of CNC(=O)c1nnn(Cc2ccccc2)c1NC(C)=O
539

----------
assay: inhibitors of larval lipid processing in zebrafish, primary screen, whole organism, PED6 fluorescence, gall bladder and intestine (AID 686); conditions: Zebrafish larvae PED6 lipid processing, fluorescence scoring; screened at 20 µM (by protocol);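 note: larvae 5 to 7 days old with five fish per well; signal comes from phospholipase A2 cleavage of quenched PED6 carried via bile; overnight exposure to compound and PED6 before scoring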
Calls of active or inactive are those of the source.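 The calls were made as follows: active = a full or partial loss of lipid-probe fluorescence in the fish gall bladder, intestine or both, judged by eye; inactive = no fluorescence loss, or compound toxic to the fish.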
MEASURE NAME: outcome

COMPOUND	MEASURED RESULT
CC(=O)/C(C#N)=C1\NC(=O)C(Cc2ccccc2)S1 (configuration not stated)	inactive
Cc1nc2c(c(N3CCOCC3)n1)OCC(=O)N2	inactive
COCCNc1ncnc2c1cnn2-c1ccc(Cl)cc1	inactive
CC1(C(=O)CSc2n[nH]c(-c3ccccc3Cl)n2)CCC(=O)O1 (configuration not stated)	inactive
Cc1ccc(S(=O)(=O)NC(=O)Nc2ncc3c(n2)CC(c2ccco2)CC3=O)cc1 (configuration not stated)	inactive

Form field: reported outcome of Cc1cccc(-c2nc(C#N)c(NC3CCCCC3)o2)c1
inactive

Form field: reported outcome of CCOC(=O)Oc1ccc2c(c1)C(C)=CC(C)(C)N2C(=O)OCC
inactive

Form field: reported outcome of O=C(CSc1nc2ccccc2s1)Nn1cnnc1
inactive

Form field: reported outcome of CCc1ccc(NC(=O)CSC2=C(C#N)C(c3ccc4c(c3)OCO4)CC(=O)N2)cc1 (configuration not stated)
inactive

Form field: reported outcome of Cc1c2c([n+]3n1CCC3)CC(C)(C)CC2=O
inactive

Form field: reported outcome of CCCCC(CCC(=O)Nc1ccc(C(=O)OC)cc1)C(=O)O (configuration not stated)
inactive

Form field: reported outcome of O=C(CC(c1ccc(F)cc1)c1ccco1)N1CCCC1 (configuration not stated)
inactive
